relative viability reference
Test system: NCI-H650
Assay: relative viability (nuclei count vs DMSO), 5 days (fraction); higher = more cells survive
Details: first compound 0.006325 µM
Give a plain numeric answer without units written out.

>  <COMPOUND>
CCNC(=O)c1noc(-c2cc(C(C)C)c(O)cc2O)c1-c1ccc(CN2CCOCC2)cc1 [Luminespib] + N=C(N)NC(=N)NCCc1ccccc1 [Phenformin] (partner 250 µM)

>  <RESULT_TYPE>
relative viability

>  <EXPERIMENTAL_VALUE>
0.453

$$$$
>  <COMPOUND>
CCNC(=O)c1noc(-c2cc(C(C)C)c(O)cc2O)c1-c1ccc(CN2CCOCC2)cc1 [Luminespib] + CS(=O)(=O)N1CCN(Cc2cc3nc(-c4cccc5[nH]ncc45)nc(N4CCOCC4)c3s2)CC1 [Pictilisib] (partner 1 µM)

>  <RESULT_TYPE>
relative viability

>  <EXPERIMENTAL_VALUE>
0.851

$$$$
>  <COMPOUND>
CCNC(=O)c1noc(-c2cc(C(C)C)c(O)cc2O)c1-c1ccc(CN2CCOCC2)cc1 [Luminespib] + Nc1ncn([C@H]2C[C@H](O)[C@@H](CO)O2)c(=O)n1 [Decitabine] (partner 2 µM)

>  <RESULT_TYPE>
relative viability

>  <EXPERIMENTAL_VALUE>
0.354

$$$$
>  <COMPOUND>
CCNC(=O)c1noc(-c2cc(C(C)C)c(O)cc2O)c1-c1ccc(CN2CCOCC2)cc1 [Luminespib] + C[C@@H](Oc1cc(-c2cnn(C3CCNCC3)c2)cnc1N)c1c(Cl)ccc(F)c1Cl [Crizotinib] (partner 1 µM)

>  <RESULT_TYPE>
relative viability

>  <EXPERIMENTAL_VALUE>
0.745

$$$$

Now take the following compound into account.
[ask] Find relative viability (NCI-H650) for the entry CCNC(=O)c1noc(-c2cc(C(C)C)c(O)cc2O)c1-c1ccc(CN2CCOCC2)cc1 [Luminespib] + O=C(CCCCCCC(=O)Nc1ccccc1)NO [Vorinostat] (partner 1 µM)
[reply] 0.392
